test system: SR; test: NCI tumour cell line growth inhibition, 48 h
Activity calls are given as the source filed them. Cut-off read from the data, not from the text of the source: active = GI50 up to about 1.1 µM and inactive = higher.
Outcome field: choose from true (1) for active, false (0) for inactive

Known results for molecules:
// query // return assay outcome for CC(C)(C)c1ccc(/C=N/NC(=O)CSCC(=O)N/N=C/c2ccc(C(C)(C)C)cc2)cc1
// result false (0)

// query State the result this test recorded for CC(=O)Oc1ccc2cc(-c3ccccc3OC(C)=O)c(=O)oc2c1 .
// result false (0)

// query Answer briefly: the call reported for N#CC(c1ccccc1)N(CCc1ccccc1)C(=O)Oc1ccccc1 (stereo unspecified) in this assay.
// result false (0)

// query Recorded test outcome, item COC(=O)C(C(=O)C(=O)Nc1ccccc1OC)c1csc(-n2nc(-c3ccccc3)cc2-c2ccccc2)n1 (stereo unspecified)
// result false (0)

// query Hey, what did the test say about Cc1ccc(S(=O)(=O)N(CC(O)COc2ccccc2)c2c(F)cccc2F)cc1 (stereo unspecified) ?
// result false (0)

// query Tell me the recorded outcome of this test for COC1=C(Cl)C(=O)c2c(O)ccc(O)c2C1=O .
// result true (1)

// query Lab log entry: Cc1cc(N(CCC#N)CCC#N)ccc1C(/N=N/c1ccccc1)=N\NC(=O)c1ccccc1 — outcome as called in the assay?
// result false (0)

// query GET /call?item= O=C(CC1=Nc2nnc(CCCCCCCc3nnc4n3C(=O)C(CC(=O)c3ccccc3)=N4)n2C1=O)c1ccccc1 returns the recorded outcome of this test.
// result false (0)

Next, consider the following molecule.
// query So what was the verdict on Cc1nn(C(=O)c2ccncc2)c2c1C(c1ccccc1)SC(=N)N2 (stereo unspecified) in this test?
// result false (0)

====

tested on: SR; test: NCI tumour cell line growth inhibition, 48 h
Activity calls are given as the source filed them. Cut-off read from the data, not from the text of the source: active = GI50 up to about 1.1 µM and inactive = higher.
assay_metric: GI50

Would you please look over these solved cases?
The molecule listed as O=C1Nc2ccc(Br)cc2/C1=N/Nc1ccccc1[N+](=O)[O-] has a reported GI50 of 10.2 µM (inactive)

Form field GI50, entry O=C(O)c1ccc(C(=O)c2ccccc2C(=O)O)cc1C(=O)O : > 100 µM (inactive)

Cc1ccc(C(=O)C#Cc2cn(C3CC(O)C(CO)O3)c(=O)[nH]c2=O)cc1 (stereo not given) has a reported GI50 of 35.2 µM (inactive)

So, O=C1Nc2ccccc2C(=O)O/C(Cc2ccccc2)=N\c2ccccc21 ? Its GI50 was > 100 µM (inactive)

So, O=C1Nc2ccccc2N/C1=C\C(=O)C(F)F ? Its GI50 was > 100 µM (inactive)

So, COc1cc(Oc2nc3ccccc3nc2C(=O)O)cc(OC)c1OC ? Its GI50 was > 100 µM (inactive)

Continuing:
What the record says about C=CC(C)(C)NC(C(=O)N1CCC[C@H]1c1nc(-c2nc(C(=O)OCC=C(C)C)c(C)o2)c(C)o1)C(C)C (stereo not given in full) : GI50 is 32.2 µM (inactive)

Please fill in: GI50 reported for CSc1nc(NC2OCC(OC(C)=O)C(OC(C)=O)C2OC(C)=O)c(/N=C(\C)C(C)=O)c(=O)[nH]1 (stereo not given) = > 100 µM (inactive)

Looking up CCOC(=O)c1cn2c(n1)sc1cc(C)c(C)cc12 , I see its GI50 listed as 6.68 µM (inactive)

Sample C=C1CCCCCCCCCCC1[S+]([O-])c1ccccc1 (stereo not given) ; GI50 observed: 25.2 µM (inactive)

====

system: KM12; assay: NCI tumour cell line growth inhibition, 48 h
Active and inactive are the calls of the source. No stated cut-off is given here; in the data, active = GI50 up to about 1.1 µM and inactive = higher.
Below is a list of entries, each paired with its recorded GI50 value.

Previously resolved entries follow.
Sample O=C(O)Cn1c(=O)[nH]c(=O)c2[nH]cnc21 ; GI50 observed: > 100 µM (inactive)

The compound identified as Brc1ccc2c(-c3csc(-c4c[nH]c5ccccc45)n3)c[nH]c2c1 registered its GI50 at 14.2 µM (inactive)

Entry [O-][S+](CC1(O)CCCCC1)c1ccccc1 (stereo unspecified) — recorded GI50 = > 100 µM (inactive)

Documented GI50 of CCOC(=O)C1=C(C)N(Cc2ccc(Cl)cc2Cl)C2(O)C(OC)CC(=O)C3C(=O)N(c4ccccc4)C(=O)C132 (stereo unspecified) : 2.63 µM (inactive)

Lookup result for Oc1nc2ccccc2c2oc3ccccc3c12 ; measured GI50: > 100 µM (inactive)

Measured GI50 of Cc1ccc(NCc2nnc3c(-c4ccccc4)nc4ccccc4n23)cc1 : 22.8 µM (inactive)

// GI50 lookup, compound = COC(=O)CCC(=O)NC1=C(NCc2ccccc2)C(=O)c2ccccc2C1=O , result: 24.8 µM (inactive)

Per the record, Brc1cccc(Nc2ncnc3sc4c(c23)CCC2(C4)OCCO2)c1 has GI50 of 24 µM (inactive)

---
// GI50 lookup, compound = CN/C(=N\N)NS(=O)(=O)c1cc(C)c(Cl)cc1S , result: 76 µM (inactive)

The value of GI50 measured for the compound CCOC(=O)C(O)(NC(=O)c1ccccc1F)C(F)(F)F (stereo unspecified) turned out to be > 100 µM (inactive)

// GI50 value for COc1ccc2c(C)cc(N/N=C(\C)C=O)nc2c1 : 12.3 µM (inactive)

====

system: SNB-19; assay: NCI tumour cell line growth inhibition, 48 h
Calls of active or inactive are those of the source. Cut-off read from the data, not from the text of the source: active = GI50 up to about 1.1 µM and inactive = higher.
The compounds listed here are annotated with their GI50.

Some solved entries appear below for comparison.
get_value(item= COC(=O)/C(=C/c1ccc(OC)cc1)NC(=O)c1ccccc1 , readout=GI50) returns > 100 µM (inactive)

GI50 for COCCn1cnc2c(Cl)nc(Nc3ccccc3)nc21 is 90.4 µM (inactive)

Measured GI50, S=C(S)N1CCN(c2cccc(Cl)c2)CC1 : > 100 µM (inactive)

Others:
So for c1ccc2c(c1)Nc1cccc3c1c-2nc1cc2ccccc2cc13 , the logged GI50 turned out to be 1.75 µM (inactive)

Quick note, GI50 for COc1ccc(-c2nc(O)c3ccccc3n2)c(OC)c1 landed at > 100 µM (inactive)

GI50 reading for Cc1ccc(/N=N/c2c(C)c(C#N)c(=S)n(C3OC(CO)C(O)C(O)C3O)c2-c2ccccc2)cc1 (stereo not drawn) : 19.6 µM (inactive)

====

# GI50 listing for each entry below
test system: MDA-MB-435; experiment: NCI tumour cell line growth inhibition, 48 h
Activity calls are given as the source filed them. Cut-off read from the data, not from the text of the source: active = GI50 up to about 1.1 µM and inactive = higher.

These recorded examples may help you get a feel for the data.
# compound CCOC(=O)Cc1cnc(NC(NC(=O)CC)(C(F)(F)F)C(F)(F)F)s1 ; its GI50 = > 100 µM (inactive)

Kindly note the recorded GI50 for CCOC(=O)C1=NN(c2ccc(C)cc2)C2=CC(C)=NN(C)C(=S)N21 , which is > 100 µM (inactive)

---
The compound COCCn1cnc2c(Cl)nc(Nc3ccccc3)nc21 showed GI50 equal to 18.1 µM (inactive)

Please fill in: GI50 reported for COC(=O)Cc1cc(O)c2c(c1O)C(=O)c1ccccc1C2=O = > 100 µM (inactive)

# GI50 of O=C1CSC(=S)N1/N=C/c1ccc(Cl)c([N+](=O)[O-])c1 = 20.7 µM (inactive)

Noted for COc1ccc(OC)c([N+](=O)[O-])c1-c1nc2sc(C)c(C)n2c1/C=N/N=C(N)N : its GI50 reads 43.1 µM (inactive)

====

// values below are reported GI50
tested on: HT-29; assay: NCI tumour cell line growth inhibition, 48 h
Calls of active or inactive are those of the source. Cut-off read from the data, not from the text of the source: active = GI50 up to about 1.1 µM and inactive = higher.

GI50 reported for this compound O=C(Cc1ccccc1CCO)NCCc1ccccc1 : > 100 µM (inactive)

***
Recorded result, CC(C)=CCN=C(N)N , GI50: > 100 µM (inactive)

The compound COc1ccc(CNC2=N/C(=C\c3ccccc3Cl)C(=O)N2C)cc1 showed GI50 equal to 22.9 µM (inactive)

The reported GI50 of the compound COC1/C(=C\C(=O)OC(C)(C)C)c2ccccc2N1C(C)=O (configuration not stated) was > 100 µM (inactive)

compound CCOC(=O)c1cn2c(n1)sc1cc(C)c(C)cc12 , GI50 observed: 18 µM (inactive)

GET /value?item= O=C1Nc2ccccc2N/C1=C\C(=O)C(F)F &field=GI50 returns > 100 µM (inactive)

Given item ON(CCc1ccncc1)Cc1ccccc1 , the value recorded as its GI50 is > 100 µM (inactive)

====

tested on: M14; assay: NCI tumour cell line growth inhibition, 48 h
The source made the active and inactive calls. No stated cut-off is given here; in the data, active = GI50 up to about 1.1 µM and inactive = higher.
Assign a class; possible classes are active, inactive

Examples from the recorded data:
// query Look up the recorded call for CN(C)CCn1c(=O)c2ccc(NCCN3CCNCC3)c3c(=O)c4ccccc4n(c1=O)c23 in this test.
// result inactive

// query How did this test come out for CN(O)C(=O)Cc1ccccc1 ?
// result inactive

// query Hello, I am checking results. What call was entered for COc1ccc(OC)c([N+](=O)[O-])c1-c1nc2sc(C)c(C)n2c1/C=N/N=C(N)N ?
// result inactive

// query Please share the test call associated with CN(C)C12C=CC=CC3=C(c4ccccc4)C(c4ccccc4)=C(c4ccccc4)C31c1ccccc1C2 (stereo unspecified) .
// result inactive

// query Could you please tell me the result logged for N#C/C(=C1\N=C(c2ccccc2O)Oc2ccccc21)c1ccc([N+](=O)[O-])cc1 in this assay?
// result inactive

// query Hello, I am checking results. What call was entered for ON(CCc1ccncc1)Cc1ccccc1 ?
// result inactive

Others:
// query What did the test return for CN(C)CCC(=O)N1C/C(=C/c2ccccc2)C(=O)/C(=C\c2ccccc2)C1 ?
// result inactive

// query I would be grateful if you could indicate the recorded call for CCOC(=O)C1=C(C)NC(=O)N([N+](=O)[O-])C1c1ccccc1C(F)(F)F (stereo unspecified) .
// result inactive

// query Recorded test call requested for O=[N+]([O-])c1ccc(Cl)cc1C1SCc2nc3ccccc3n21 (stereo unspecified)
// result inactive

// query Hey, what did the test say about CCOC(=O)[C@H]1O[C@@H]1C(=O)NC(CC(C)C)C(=O)NCCC(C)C (stereo partly specified) ?
// result inactive

// query I'd appreciate the recorded outcome for C/C=C1\CC(C(=O)OCC)CCCCCCCCCCC1=O (stereo unspecified) from this test.
// result inactive

// query Field: outcome | Entry: O=C(Nc1ccn(CCI)c(=O)n1)c1ccccc1
// result inactive

// query Call for entry Cc1cccc(C)c1NC(=O)C(Cc1c[nH]c2ccccc12)NC(=O)OCc1ccccc1 (stereo unspecified) :
// result inactive

// query # outcome recorded in this test, key = CSc1nc(NC2OCC(OC(C)=O)C(OC(C)=O)C2OC(C)=O)c(/N=C(\C)C(C)=O)c(=O)[nH]1 (stereo unspecified)
// result inactive

// query Recorded call for Sc1nnc(-c2ccnc(-c3nnc(S)[nH]3)c2)[nH]1 ?
// result inactive
